Can you tell me fold lower EC50 than reference PR000374 for the items I'm about to list?
molecular target: T1, human ROR1 (hROR1) on cells (human, UniProt Q01973 30-937); assay: FACS, HEK293T-hROR1 cells
T1 construct: whole, on cells; the cell line is named under assay; also called HEK293T-hROR1; 293T-hROR1
T1 sequence (Q01973 30-937): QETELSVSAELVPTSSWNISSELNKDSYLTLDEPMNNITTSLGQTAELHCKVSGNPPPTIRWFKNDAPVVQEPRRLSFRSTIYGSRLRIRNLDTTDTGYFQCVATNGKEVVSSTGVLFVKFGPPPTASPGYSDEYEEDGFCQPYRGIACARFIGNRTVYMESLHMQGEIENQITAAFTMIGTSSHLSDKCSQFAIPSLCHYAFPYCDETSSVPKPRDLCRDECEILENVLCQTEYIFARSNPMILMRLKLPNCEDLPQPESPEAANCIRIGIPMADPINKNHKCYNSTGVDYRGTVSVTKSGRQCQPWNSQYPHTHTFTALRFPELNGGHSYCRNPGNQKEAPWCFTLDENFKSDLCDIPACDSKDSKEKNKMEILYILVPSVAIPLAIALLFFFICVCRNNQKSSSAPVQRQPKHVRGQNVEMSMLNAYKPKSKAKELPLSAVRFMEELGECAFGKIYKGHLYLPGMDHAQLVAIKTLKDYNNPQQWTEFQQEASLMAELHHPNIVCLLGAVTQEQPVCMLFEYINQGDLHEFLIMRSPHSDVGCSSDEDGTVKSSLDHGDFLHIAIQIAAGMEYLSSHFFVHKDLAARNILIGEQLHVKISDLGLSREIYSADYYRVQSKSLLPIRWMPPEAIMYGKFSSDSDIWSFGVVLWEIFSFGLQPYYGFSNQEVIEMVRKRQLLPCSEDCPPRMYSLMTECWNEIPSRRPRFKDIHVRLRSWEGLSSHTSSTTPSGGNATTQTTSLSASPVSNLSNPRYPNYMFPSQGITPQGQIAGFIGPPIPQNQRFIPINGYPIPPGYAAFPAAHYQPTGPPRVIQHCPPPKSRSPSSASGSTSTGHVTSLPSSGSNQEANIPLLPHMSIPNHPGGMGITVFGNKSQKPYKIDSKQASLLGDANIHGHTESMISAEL
Numbers only, in fold.

For every listed record, write down its fold lower EC50 than reference PR000374.
1. PR001355 (antibody, human IgG1, kappa, V domains shown, fully human IgG1, kappa) VH: QVQLVQSGGGLVQPGGSLRLSCAASGFTFSSYGMHWVRQAPGKGLEWVAVIWYDGSNKDYADSVKGRFTISRDTSKNTLYLQMNSLRAEDTAVYYCVREQARSFDLWGRGTLVTVSS VL: DIQMTQSPSSLSASVGDRVTITCRASQTMNNWLAWYQQKPGKAPKLLIYKASSLESGVPSRFSGSGSGTEFTLTISSLQPDDSATYYCQQYNSYSPMYTFGQGTKLEIKR
2. PR001417 (antibody, V domains shown, fully human IgG1, kappa) VH: QVQLVESGGGVVQPGRSLRLSCAASGFSFSSYAMHWVRQAPGRGLEWVAVIWYDGGDEDYIDSVKGRFTISRDDSKNTLYLQMNSLRAEDTAVYYCAREQARSFDLWGRGTLVTVSS VL: DVVMTQSPSTLSASVGDRVTITCRASQSINSWLAWYQQKPGKAPKLLIYKASSLESGVPSRFSGSGSGTEFTLTISSLQPDDFATYYCQQYNSYSPMYTFGQGTKVEIKR

Reply:
10
10

Quick batch: fold lower EC50 than reference PR000374 for everything below.
1. PR001356 (antibody, human IgG1, kappa, V domains shown, fully human IgG1, kappa; also called anti-ROR1 1015M2-E6 hIgG1; PR001356(WT)) VH: QVQLVESGGGVVQPGRSLRLSCAASGFTFSSYGMHWVRQAPGKGLEWVAVAWYDGVSEDYADSVKGRFTISRDNAKNTLYLQMNSLRAEDTAVYYCAREQARSFDLWGRGTLVTVSS VL: DIVMTQSPSTLSASVGDRVTITCRASQSINNWLAWYQQKPGKAPKLLIYKASSLESGVPSRFSGSGSGTEFTLTISSLQPDDFATYYCQQYKSYSPMYTFGQGTKVEIKR
2. PR001367 (antibody, human IgG1, kappa, V domains shown, fully human IgG1, kappa) VH: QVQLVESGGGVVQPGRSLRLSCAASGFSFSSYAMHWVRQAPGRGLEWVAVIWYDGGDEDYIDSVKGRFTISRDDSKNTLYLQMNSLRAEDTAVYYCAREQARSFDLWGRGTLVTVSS VL: DVVMTQSPSTLSASVGDRVTITCRASQTINNWLAWYQQKPGKAPKLLIYKASSLESGVPSRFSGSGSGTEFTLTISSLQPDDFATYYCQQYNSYSPMYTFGQGTKVEIKR

Reply:
1. 10
2. 10

Values compiled from patent US20240010721A1.
